Would you kindly list activity change, negative = inhibition for each of these molecules?
- Test Summary: AP1 Signaling Pathway (AID 357);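 note: ME-180 reporter cells stimulated with EGF at its EC50 level; % is set by controls: 0 for no effect and ±100 for the full control effect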
- Experimental Parameters: ME-180 (cervical carcinoma) AP-1-bla reporter, EGF-induced, beta-lactamase ratio, 5 h; at 17.2 µM (top of the series) unless noted
- Method: NCGC Assay Overview: Activator protein-1 (AP-1), a transcription factor, plays an important role in tumor genesis by regulating genes involved in cell proliferation, differentiation, apoptosis, and angiogenesis. AP-1 activity is induced by a complex network of signaling pathways that involves extracellular signals, such as growth factors. […] Library compounds were measured for their ability to modulate positively or negatively the action of EC50 EGF on reporter gene activity. […]
Results filed as inconclusive are left out. Calls of active or inactive are those of the source. Calls come from the whole dose curve; as a rule, active = well fitted curve in either direction with a large enough effect (not every such curve was filed as active); inconclusive = small, poorly fitted or top-dose-only effect, or another doubt; inactive = flat fitted curve, though single readings scatter.

* Cn1c2c(c(=O)n(C)c1=O)C(NC(=O)c1cccs1)(C(F)(F)F)C(=O)N2 (configuration not stated) | -2.19% (inactive)
* CC(C)c1nc(NCC2CCCO2)c(C#N)c2c1COC(C)(C)C2 (configuration not stated) | -26.1% (inactive)
* COC(=O)/C=c1/s/c(=C(/C#N)C(=O)N2CCCCC2)n(-c2ccccc2)c1=O | 26% (inactive)
* CCOC(=O)C(CC(=O)O)N1CCCCC1 (configuration not stated) | 4.69% (inactive)
* NCCC[C@@](N)(C(=O)O)C(F)F | 6.84% [at 38 µM] (inactive)

Report activity change, negative = inhibition for each item below.
1. CCCCSc1nnc(-c2ccc(NC(C)=O)cc2)n1C
2. CCCOc1ccc(/C(O)=C2/C(=O)C(=O)N(CCN(C)C)C2c2ccncc2)cc1 (configuration not stated)

1: -14.2% (inactive); 2: -5.87% (inactive)

Report activity change, negative = inhibition for each item below.
1. CCCCn1c(O)c(C=NCCCN(C)C)c(=O)[nH]c1=O
2. C=C(Br)Cn1c(CCCC)nc2ccccc21
3. c1ccc(Cc2nnc3n2CCCCC3)cc1
4. Cn1c(=O)n(CCC(=O)O)c2ccccc21
5. O=C(NCc1ccccc1)/C(=N\O)c1ccccc1

["-1.31% (inactive)", "-12.4% (inactive)", "-5.05% (inactive)", "11.6% (inactive)", "-2.22% (inactive)"]
